// provenance: patent US6930118B2

- Target or system: CB1 receptor (Rattus norvegicus, UniProt P20272)
- Construct: the cerebellum was dissected away from the rest of the brain, weighed and homogenised; from tissue; host or cells: Sprague Dawley rat cerebellum membranes
- Sequence (P20272 whole entry): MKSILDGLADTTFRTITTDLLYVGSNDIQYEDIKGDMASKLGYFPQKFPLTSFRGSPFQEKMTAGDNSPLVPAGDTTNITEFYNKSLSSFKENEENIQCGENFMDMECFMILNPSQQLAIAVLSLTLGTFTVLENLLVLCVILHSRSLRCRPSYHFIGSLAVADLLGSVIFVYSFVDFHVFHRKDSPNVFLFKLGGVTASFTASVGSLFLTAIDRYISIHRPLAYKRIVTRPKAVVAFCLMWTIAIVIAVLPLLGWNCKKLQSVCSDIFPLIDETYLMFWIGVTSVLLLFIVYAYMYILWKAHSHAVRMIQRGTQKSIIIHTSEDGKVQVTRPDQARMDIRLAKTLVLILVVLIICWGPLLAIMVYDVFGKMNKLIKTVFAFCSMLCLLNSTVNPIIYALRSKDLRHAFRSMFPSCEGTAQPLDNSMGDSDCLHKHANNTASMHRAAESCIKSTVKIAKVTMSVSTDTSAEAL
- Measurement protocol: Radioligand binding assay, rat cerebellum membranes
pIC50: −log10 of the molar value.
pIC50 vs 7: at or above is Fulfilled, below is Not fulfilled.

Please review the following examples before continuing.
Determine whether this compound has pIC50 no lower than 7: "c1ccc(Cc2noc(-c3cn(CCN4CCCC4)c4ccccc34)n2)cc1"
Fulfilled

Does pIC50 meet or surpass 7 for "c1ccc(-c2noc(-c3cn(CCN4CCOCC4)c4ccccc34)n2)cc1" ?
Not fulfilled

Assess whether reported pIC50 for "COc1ccc(Cc2noc(-c3cn(CCN4CCOCC4)c4ccccc34)n2)cc1" sits at 7 or higher.
Not fulfilled

Does pIC50 meet or surpass 7 for "c1ccc(Cc2noc(-c3cn(CCN4CCOCC4)c4ccccc34)n2)cc1" ?
Not fulfilled

Hi team, for "c1ccc(-c2ccc(-c3noc(-c4cn(CCN5CCOCC5)c5ccccc45)n3)cc2)cc1" , is the recorded pIC50 at or above 7?
Not fulfilled

Next compound, please.
Given the entry "CCCCCn1cc(-c2nc(Cc3ccccc3)no2)c2ccccc21" , answer whether its pIC50 meets or surpasses 7.
Fulfilled

---

- Target or system: CB1 receptor (Mus musculus, UniProt P47746)
- Construct: Mouse vasa deferentia were dissected with capsular connective tissue intact and set up in 20 ml organ baths; from tissue; host or cells: mouse (Swiss white) isolated vas deferens
- Sequence (P47746 whole entry): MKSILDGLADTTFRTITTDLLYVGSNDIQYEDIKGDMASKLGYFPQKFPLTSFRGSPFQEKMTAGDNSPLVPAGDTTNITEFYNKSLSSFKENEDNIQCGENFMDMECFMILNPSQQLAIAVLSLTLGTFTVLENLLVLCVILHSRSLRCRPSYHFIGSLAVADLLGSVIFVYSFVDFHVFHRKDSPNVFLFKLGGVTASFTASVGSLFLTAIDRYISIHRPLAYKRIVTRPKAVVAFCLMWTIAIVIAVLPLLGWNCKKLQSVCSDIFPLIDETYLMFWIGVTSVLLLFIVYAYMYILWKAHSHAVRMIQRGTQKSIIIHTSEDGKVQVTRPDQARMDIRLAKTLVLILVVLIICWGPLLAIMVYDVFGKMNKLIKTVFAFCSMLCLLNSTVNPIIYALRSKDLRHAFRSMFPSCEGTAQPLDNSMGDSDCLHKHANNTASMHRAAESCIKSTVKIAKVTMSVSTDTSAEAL
- Measurement protocol: Mouse electrically-stimulated isolated vas deferens bioassay (MVD)
- Assay type: cell-based
- Assay setup: decrease of electrically evoked twitch force, read-out: CB1 (MVD) % inh at 1.0 μM
Readout: inhibition at 1 µM (%)
Respond with the bare value in %.

# count of solved cases: 3
Per the record, "c1csc(Cc2noc(-c3cn(CCN4CCOCC4)c4ccccc34)n2)c1" has inhibition at 1 µM of 81

What the record says about "c1ccc2cc(Cc3noc(-c4cn(CCN5CCOCC5)c5ccccc45)n3)ccc2c1" : inhibition at 1 µM is 54

The reported value for "c1ccc(-c2noc(-c3cn(CCN4CCOCC4)c4ccccc34)n2)cc1" in terms of inhibition at 1 µM is 83

Continuing:
The recorded inhibition at 1 µM for "CCCCCn1cc(-c2nc(Cc3ccccc3)no2)c2ccccc21" is 100

---

- Target or system: CB1 receptor (Mus musculus)
- Construct: Mouse vasa deferentia were dissected with capsular connective tissue intact and set up in 20 ml organ baths; from tissue; host or cells: mouse (Swiss white) isolated vas deferens
- Measurement protocol: Mouse electrically-stimulated isolated vas deferens bioassay (MVD)
- Assay type: cell-based
- Assay setup: decrease of electrically evoked twitch force, read-out: CB1 (MVD) % inh at 1.0 μM
Readout: inhibition at 1 µM (%)
Provide the reading as a plain figure in %.

Record excerpt, results attached:
Reported inhibition at 1 µM ( c1ccc(CCc2noc(-c3cn(CCN4CCOCC4)c4ccccc34)n2)cc1 [Compound 9] ) = 90

Record Cc1c(C(=O)c2cccc3ccccc23)c2cccc3c2n1[C@@H](CN1CCOCC1)CO3 [WIN-55212, WIN-55212-2, reference compound] , field inhibition at 1 µM: 100

# inhibition at 1 µM of c1ccc(Cc2noc(-c3cn(CCN4CCCC4)c4ccccc34)n2)cc1 [Compound 1] = 80

Quick note, inhibition at 1 µM for c1ccc(Cc2noc(-c3cn(CCN4CCOCC4)c4ccccc34)n2)cc1 [Compound 2] landed at 96

Kindly note the recorded inhibition at 1 µM for Brc1ccc(Cc2noc(-c3cn(CCN4CCOCC4)c4ccccc34)n2)cc1 [Compound 7] , which is 58

inhibition at 1 µM in this record for COc1ccc(Cc2noc(-c3cn(CCN4CCOCC4)c4ccccc34)n2)cc1 [Compound 6] : 39

The molecule listed as Clc1ccccc1Cc1noc(-c2cn(CCN3CCOCC3)c3ccccc23)n1 [Compound 10] has a reported inhibition at 1 µM of 95

Notebook: c1ccc(Cc2noc(-c3cn(CCN4CCCCC4)c4ccccc34)n2)cc1 [Compound 5] , inhibition at 1 µM read as 46

Next:
Looking up CCCCC/C=C\C/C=C\C/C=C\C/C=C\CCCC(=O)NCCO [Anandamide, reference compound] , I found its inhibition at 1 µM recorded as 84
